Here is a set of compounds with reported Ki for DNA-PK (Homo sapiens), compiled from the literature.

Previously resolved entries follow.
COMPOUND	STUDY SYSTEM	Ki
c1cnc(N[C@H]2CC[C@@H](Oc3cc(N4CCOCC4)cc4nccnc34)CC2)cn1	DNA-PK (Homo sapiens)	< 0.1 µM
CNC(=O)c1ccnc2c([C@H](C)CNc3cc(-c4ccc(N(C)C5CCN(CC(F)(F)F)CC5)nc4)ncn3)cccc12	DNA-PK (Homo sapiens)	< 0.03 µM
COC(=O)c1ccc(C(C)CNc2cc(-c3ccc(N4CCN(C(C)=O)CC4)nc3)ncn2)c(OC)c1 (centres unmarked)	DNA-PK (Homo sapiens)	< 0.03 µM

Give measured Ki for CCNC(=O)c1ccnc2c([C@H](C)CNc3cc(-c4ccc(C)nc4)ncn3)cccc12 (DNA-PK (Homo sapiens)).
< 0.03 µM

Give measured Ki for CCOC(=O)c1cn2c(n1)CN(c1cc(NC[C@@H](C)c3cccc4c(C(=O)NC)ccnc34)ncn1)CC2 (DNA-PK (Homo sapiens)).
< 0.03 µM
